biological target: KDR (human, UniProt P35968 20-1356); assay: cell-based or functional assay
Sequence (P35968 20-1356): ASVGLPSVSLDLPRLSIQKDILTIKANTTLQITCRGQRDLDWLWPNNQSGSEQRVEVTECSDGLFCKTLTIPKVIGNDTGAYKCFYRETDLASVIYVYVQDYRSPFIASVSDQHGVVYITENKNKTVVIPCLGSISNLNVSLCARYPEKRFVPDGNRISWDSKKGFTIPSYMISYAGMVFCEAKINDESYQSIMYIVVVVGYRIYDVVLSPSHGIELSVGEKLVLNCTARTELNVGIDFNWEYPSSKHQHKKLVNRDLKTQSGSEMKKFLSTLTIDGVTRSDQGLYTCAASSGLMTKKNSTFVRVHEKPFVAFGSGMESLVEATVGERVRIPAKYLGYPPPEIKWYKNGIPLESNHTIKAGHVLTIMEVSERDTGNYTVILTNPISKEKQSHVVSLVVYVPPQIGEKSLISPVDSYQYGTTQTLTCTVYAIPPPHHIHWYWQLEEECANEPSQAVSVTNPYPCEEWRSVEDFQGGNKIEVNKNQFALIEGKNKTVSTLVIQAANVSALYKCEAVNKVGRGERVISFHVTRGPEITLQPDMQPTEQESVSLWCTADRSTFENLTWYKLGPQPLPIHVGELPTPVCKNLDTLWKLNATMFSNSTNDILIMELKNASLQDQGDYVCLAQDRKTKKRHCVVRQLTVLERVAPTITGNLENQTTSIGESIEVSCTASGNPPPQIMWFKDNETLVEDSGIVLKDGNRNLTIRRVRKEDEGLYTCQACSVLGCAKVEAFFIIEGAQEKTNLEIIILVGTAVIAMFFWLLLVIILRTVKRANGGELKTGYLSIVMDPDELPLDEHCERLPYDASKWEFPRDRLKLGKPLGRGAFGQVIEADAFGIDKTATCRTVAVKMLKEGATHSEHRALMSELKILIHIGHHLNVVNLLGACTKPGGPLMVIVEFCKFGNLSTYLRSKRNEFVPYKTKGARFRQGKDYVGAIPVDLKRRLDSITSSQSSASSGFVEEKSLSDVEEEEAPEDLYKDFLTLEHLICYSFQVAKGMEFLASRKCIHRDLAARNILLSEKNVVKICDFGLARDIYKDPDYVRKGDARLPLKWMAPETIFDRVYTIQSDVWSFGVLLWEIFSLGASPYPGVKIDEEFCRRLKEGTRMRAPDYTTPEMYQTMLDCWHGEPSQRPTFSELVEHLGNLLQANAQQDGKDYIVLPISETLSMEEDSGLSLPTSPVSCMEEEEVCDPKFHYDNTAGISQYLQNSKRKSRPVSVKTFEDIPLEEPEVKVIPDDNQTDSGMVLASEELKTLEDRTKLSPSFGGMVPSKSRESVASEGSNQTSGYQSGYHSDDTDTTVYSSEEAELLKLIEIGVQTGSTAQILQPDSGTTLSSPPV
measured-property: Activity at 133 nM (% Inhibition), 1-hour Pre-incubation at 4° C., N = 1 (%)

- binder: "31E11 (antibody, V domains shown) VH: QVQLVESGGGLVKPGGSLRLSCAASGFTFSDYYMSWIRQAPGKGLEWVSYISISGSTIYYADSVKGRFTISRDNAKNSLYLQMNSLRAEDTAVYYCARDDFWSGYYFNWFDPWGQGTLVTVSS VL: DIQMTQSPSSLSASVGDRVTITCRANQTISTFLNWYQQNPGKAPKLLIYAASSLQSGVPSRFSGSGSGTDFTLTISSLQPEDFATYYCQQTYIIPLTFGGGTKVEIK"
  assay-value: 82
- binder: "29A3 (antibody, V domains shown) VH: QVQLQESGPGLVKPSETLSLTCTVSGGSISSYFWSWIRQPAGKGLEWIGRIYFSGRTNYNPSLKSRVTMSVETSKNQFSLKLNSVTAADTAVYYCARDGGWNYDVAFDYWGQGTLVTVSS VL: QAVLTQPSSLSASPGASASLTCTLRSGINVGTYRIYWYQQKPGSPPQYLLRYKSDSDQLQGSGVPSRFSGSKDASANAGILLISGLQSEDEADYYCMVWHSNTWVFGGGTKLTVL"
  assay-value: 25
- binder: "24B3 (antibody, V domains shown) VH: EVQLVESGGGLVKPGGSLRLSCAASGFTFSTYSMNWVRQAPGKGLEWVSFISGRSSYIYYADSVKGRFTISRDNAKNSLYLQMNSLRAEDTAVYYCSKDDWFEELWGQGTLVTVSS VL: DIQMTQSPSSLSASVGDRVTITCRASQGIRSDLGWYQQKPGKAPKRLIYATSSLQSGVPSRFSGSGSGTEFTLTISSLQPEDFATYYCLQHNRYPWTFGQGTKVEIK"
  assay-value: 80
- binder: "32G7 (antibody, V domains shown) VH: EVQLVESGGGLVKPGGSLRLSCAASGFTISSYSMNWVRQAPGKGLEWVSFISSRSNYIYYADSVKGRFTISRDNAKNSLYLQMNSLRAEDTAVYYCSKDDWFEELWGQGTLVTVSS VL: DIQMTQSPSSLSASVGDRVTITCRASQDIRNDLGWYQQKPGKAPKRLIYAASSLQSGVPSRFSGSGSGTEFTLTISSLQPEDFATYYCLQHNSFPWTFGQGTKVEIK"
  assay-value: 79
- binder: "22B8 (antibody, V domains shown) VH: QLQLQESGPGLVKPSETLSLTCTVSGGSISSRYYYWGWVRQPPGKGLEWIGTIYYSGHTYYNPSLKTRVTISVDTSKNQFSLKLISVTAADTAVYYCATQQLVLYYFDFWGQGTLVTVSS VL: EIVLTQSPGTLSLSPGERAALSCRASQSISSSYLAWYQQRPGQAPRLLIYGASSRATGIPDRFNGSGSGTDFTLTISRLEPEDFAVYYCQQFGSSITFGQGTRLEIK"
  assay-value: 75
